Origin of values: patent US20190202907A1

# maps each entry to its Kd
- system.tested: T1, human ST2L (human, UniProt Q01638 19-328, limits assumed)
- T1 construct: also called IL-1R4; IL-33Ra
- T1 sequence (looked up): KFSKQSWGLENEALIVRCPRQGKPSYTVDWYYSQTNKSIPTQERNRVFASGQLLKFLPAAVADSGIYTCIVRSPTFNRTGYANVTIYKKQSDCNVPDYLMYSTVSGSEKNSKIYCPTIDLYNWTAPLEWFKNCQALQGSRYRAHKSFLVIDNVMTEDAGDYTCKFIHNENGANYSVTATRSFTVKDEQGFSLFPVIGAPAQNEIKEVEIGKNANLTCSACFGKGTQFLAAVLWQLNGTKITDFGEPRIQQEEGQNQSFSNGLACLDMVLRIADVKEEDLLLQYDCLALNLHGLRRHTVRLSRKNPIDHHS
- protocol.notes: affinity table; method not stated
measured.parameter: Kd (nM)

INSERT INTO measurements (binder, measured_parameter, value) VALUES
  ('STLM216 (antibody, from another filing, V domains shown) VH: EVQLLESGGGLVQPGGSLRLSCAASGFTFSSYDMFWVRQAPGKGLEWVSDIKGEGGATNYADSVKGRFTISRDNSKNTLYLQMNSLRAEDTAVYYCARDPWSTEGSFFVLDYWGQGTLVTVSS VL: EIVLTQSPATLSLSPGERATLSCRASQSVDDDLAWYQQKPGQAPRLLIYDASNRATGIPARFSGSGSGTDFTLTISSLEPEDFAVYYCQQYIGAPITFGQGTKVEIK', 'Kd', 0.016),
  ('STLM229 (antibody, from another filing, V domains shown) VH: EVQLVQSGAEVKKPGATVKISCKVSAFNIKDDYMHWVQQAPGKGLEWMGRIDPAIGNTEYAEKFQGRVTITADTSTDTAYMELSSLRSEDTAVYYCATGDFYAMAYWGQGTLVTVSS VL: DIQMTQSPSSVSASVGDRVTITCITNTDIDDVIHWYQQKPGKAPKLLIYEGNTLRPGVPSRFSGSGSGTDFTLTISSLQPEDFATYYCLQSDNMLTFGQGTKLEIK', 'Kd', 0.035),
  ('STLM124 (antibody, from another filing, V domains shown) VH: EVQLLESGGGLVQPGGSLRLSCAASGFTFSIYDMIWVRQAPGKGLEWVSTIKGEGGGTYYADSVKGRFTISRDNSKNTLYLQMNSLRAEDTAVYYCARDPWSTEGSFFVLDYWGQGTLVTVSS VL: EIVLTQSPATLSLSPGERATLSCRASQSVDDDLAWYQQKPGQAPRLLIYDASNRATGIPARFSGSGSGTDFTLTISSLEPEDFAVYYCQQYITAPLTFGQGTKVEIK', 'Kd', 0.046),
  ('STLM108 (antibody, from another filing, V domains shown) VH: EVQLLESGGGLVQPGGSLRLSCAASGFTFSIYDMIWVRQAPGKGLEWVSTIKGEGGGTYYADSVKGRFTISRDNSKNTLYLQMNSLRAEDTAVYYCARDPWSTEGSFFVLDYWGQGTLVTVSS VL: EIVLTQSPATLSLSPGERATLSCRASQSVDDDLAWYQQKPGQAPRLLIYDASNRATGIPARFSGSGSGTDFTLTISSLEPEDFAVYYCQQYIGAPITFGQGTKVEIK', 'Kd', 0.097),
  ('STLM228 (antibody, from another filing, V domains shown) VH: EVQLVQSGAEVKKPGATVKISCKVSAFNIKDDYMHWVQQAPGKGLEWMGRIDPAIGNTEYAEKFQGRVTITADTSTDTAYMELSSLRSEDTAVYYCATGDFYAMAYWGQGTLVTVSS VL: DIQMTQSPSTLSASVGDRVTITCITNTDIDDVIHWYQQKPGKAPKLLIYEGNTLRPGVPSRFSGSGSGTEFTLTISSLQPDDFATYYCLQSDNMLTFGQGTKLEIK', 'Kd', 0.052),
  ('STLM214 (antibody, from another filing, V domains shown) VH: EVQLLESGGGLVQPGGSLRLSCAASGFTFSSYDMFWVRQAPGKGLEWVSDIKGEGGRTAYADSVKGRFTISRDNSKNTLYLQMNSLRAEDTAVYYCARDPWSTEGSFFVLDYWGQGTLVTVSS VL: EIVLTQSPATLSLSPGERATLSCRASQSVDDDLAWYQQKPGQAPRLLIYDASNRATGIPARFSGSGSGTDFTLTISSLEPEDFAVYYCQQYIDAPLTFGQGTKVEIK', 'Kd', 0.033),
  ('STLM219 (antibody, from another filing, V domains shown) VH: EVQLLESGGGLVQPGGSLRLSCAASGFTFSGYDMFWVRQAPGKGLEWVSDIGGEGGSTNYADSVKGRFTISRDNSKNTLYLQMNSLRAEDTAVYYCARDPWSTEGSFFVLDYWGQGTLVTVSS VL: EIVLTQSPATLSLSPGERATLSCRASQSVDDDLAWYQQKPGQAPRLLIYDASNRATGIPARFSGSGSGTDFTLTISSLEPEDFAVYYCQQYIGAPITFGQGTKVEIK', 'Kd', 0.027),
  ('STLM209 (antibody, from another filing, V domains shown) VH: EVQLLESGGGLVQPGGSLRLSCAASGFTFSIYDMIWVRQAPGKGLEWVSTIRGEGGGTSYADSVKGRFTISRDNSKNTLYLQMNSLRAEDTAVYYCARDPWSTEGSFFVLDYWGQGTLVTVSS VL: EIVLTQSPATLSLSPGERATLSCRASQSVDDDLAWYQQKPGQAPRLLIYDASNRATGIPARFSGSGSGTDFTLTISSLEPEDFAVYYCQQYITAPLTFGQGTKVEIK', 'Kd', 0.026),
  ('STLM107 (antibody, from another filing, V domains shown) VH: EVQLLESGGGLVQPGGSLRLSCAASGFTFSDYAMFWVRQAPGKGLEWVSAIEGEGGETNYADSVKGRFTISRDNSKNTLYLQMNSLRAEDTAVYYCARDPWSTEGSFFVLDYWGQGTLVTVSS VL: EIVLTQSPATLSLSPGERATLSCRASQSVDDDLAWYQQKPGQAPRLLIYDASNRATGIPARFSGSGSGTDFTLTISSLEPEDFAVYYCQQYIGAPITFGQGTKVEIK', 'Kd', 0.012),
  ('STLM231 (antibody, from another filing, V domains shown) VH: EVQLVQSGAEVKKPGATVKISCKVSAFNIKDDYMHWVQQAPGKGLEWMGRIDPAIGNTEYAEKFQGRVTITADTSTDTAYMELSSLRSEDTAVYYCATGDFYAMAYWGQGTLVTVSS VL: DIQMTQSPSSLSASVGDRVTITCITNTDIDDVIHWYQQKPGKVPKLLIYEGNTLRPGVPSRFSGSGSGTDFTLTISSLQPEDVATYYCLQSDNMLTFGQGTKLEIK', 'Kd', 0.046);
